All figures here come from patent US6730675B2.

# Target Under Test: NMDA receptor glycine site (Rattus norvegicus)
# Construct: The rat brain membranes used in the experiments were obtained from Analytical Biological Services Inc; tissue Analytical Biological Services Inc
# Experiment Notes: Test A: Inhibition of binding of [3H]-MDL105,519 to brain membranes
# Measurement Context: displacement of 1.2 nM [3H]MDL105,519, brain membranes
Quick reference: Ki of the listed items.
Number only, in nM; omit the unit.

Would you please look over these solved cases?
structure=Cc1[nH]cnc1Cn1nc(O)c2nc3cc(Cl)ccc3c(O)c2c1=O target_under_test="NMDA receptor glycine site (Rattus norvegicus)" property=Ki endpoint_value=434
structure=O=c1c2ccc(Cl)cc2[nH]c2c(O)nn(Cc3ccc(-c4ccccc4Cl)o3)c(=O)c12 target_under_test="NMDA receptor glycine site (Rattus norvegicus)" property=Ki endpoint_value=298
structure=Cc1ccc(Cn2nc(O)c3[nH]c4cc(Cl)ccc4c(=O)c3c2=O)s1 target_under_test="NMDA receptor glycine site (Rattus norvegicus)" property=Ki endpoint_value=28
structure=COC(=O)c1ccc(Cn2nc(O)c3[nH]c4cc(Cl)ccc4c(=O)c3c2=O)o1 target_under_test="NMDA receptor glycine site (Rattus norvegicus)" property=Ki endpoint_value=72
structure=Cc1c(Cn2nc(O)c3[nH]c4cc(Cl)ccc4c(=O)c3c2=O)sc2ccccc12 target_under_test="NMDA receptor glycine site (Rattus norvegicus)" property=Ki endpoint_value=161

Req: Recall the reported Ki of Cc1cc(Cn2nc(O)c3[nH]c4cc(Cl)ccc4c(=O)c3c2=O)c(C)o1 on NMDA receptor glycine site (Rattus norvegicus) and write it down.
Resp: 24.8

Req: Given Cc1occc1Cn1nc(O)c2[nH]c3cc(Cl)ccc3c(=O)c2c1=O , report its Ki on NMDA receptor glycine site (Rattus norvegicus).
Resp: 28
